Test: Inhibition of KIX domain of CBP interaction with KID domain of CREB after 20-24 hrs by Renilla luciferase complementation assay
property: IC50 (µM)

Worked cases, answers included:
Reported IC50 for O=C(Nc1ccncc1)c1cc2ccccc2cc1O : what is it? 16.3

Follow-up entry: O=C(Nc1ccc(F)c(Cl)c1)c1cc2ccccc2cc1O 5.13

Follow-up entry: O=C(Nc1cnccn1)c1cc2ccccc2cc1O 20.3

Follow-up entry: O=C(Nc1ccc(Cl)cc1)c1cc2ccccc2cc1O 2.9

Follow-up entry: O=C(Nc1ccc(Br)cc1)c1cc2ccccc2cc1O 9.59

Follow-up entry: O=C(Nc1ccc(O)cc1)c1cc2ccccc2cc1O 28.2

(A) Nc1ccc(NC(=O)c2cc3ccccc3cc2O)cc1
(B) O=C(Nc1ccc(F)cc1)c1cc2ccccc2cc1O
(C) O=C(Nc1ccccc1Cl)c1cc2ccccc2cc1O
Endpoint returns the given compounds ordered by ascending IC50. Rank them, then answer with their labels in that order. B, C, A

(A) O=C(Nc1ccc(I)cc1)c1cc2ccccc2cc1O
(B) O=C(Nc1ccc(F)c(F)c1)c1cc2ccccc2cc1O
For the pair A and B , which entry has the numerically smaller recorded IC50? Response format: the label of the selected entry. B
(B: 2.39 µM, A: 34.5 µM)
